- System: Cupriavidus sp. HMF14
- PROTOCOL_DETAILS: Growth of Cupriavidus sp. HMF14 on carbon sources (strain characterization)
- Assay type: cell-based, Cupriavidus basilensis
EXPERIMENTAL_READOUT: Growth on carbon source

• c1ccccc1 = able to grow
• CC(=O)O = able to grow
• O=C(O)CC(O)(CC(=O)O)C(=O)O [citrate] = able to grow

Value source: patent US20110086395A1
